System: HepG2
Experiment: Proliferation assay (CellTiter-Glo luminescent cell viability assay), HepG2
Format: cell-based
Settings: human hepatoblastoma HepG2; 48 hours incubation; 10% (v/v) FCS; read-out: EC50, inhibition of HepG2 proliferation
Protocol: The assay is based on the relation that the ATP content is directly proportional to the number of cells present in the culture. […] To determine the inhibition of cell proliferation a luminescent cell viability assay (CellTiter-Glo®; Promega, Madison, USA) is implemented. […] Triplicates are measured for each concentration. […] The final cell number is determined after 48 hour of incubation. […] EC50 values are calculated using the four-parametric Hill equation (Sigma Plot). […]
Attribute measured: EC50 (nM)
# output: bare number, implied unit nM

Identify the reported EC50 for the following entry. O=C(/C=C/c1ccc2c(c1)OCO2)N1CCC(c2nc(-c3ccc4c(c3)OCCO4)cs2)CC1
900

====

System: CX-2
Experiment: Proliferation assay (CellTiter-Glo luminescent cell viability assay), CX-2
Type: cell-based
Conditions: human colon carcinoma CX-2; 48 hours incubation; 10% (v/v) FCS; read-out: EC50 (effective concentration reducing cell proliferation by 50%), inhibition of CX-2 proliferation
Attribute measured: pEC50
Please note pEC50 is a logarithmic value: minus log10 of concentration in mol/L. Answer with that number alone.

Specify pEC50 for O=C(/C=C/c1ccc2c(c1)OCO2)N1CCC(c2nc(-c3ccc4c(c3)OCCO4)cs2)CC1 and stop.
4.72

====

Test system: Sk-Br-3
Test: Proliferation assay (CellTiter-Glo luminescent cell viability assay), SK-Br-3
Assay type: cell-based
Conditions: human breast cancer SK-Br-3; 48 hours incubation; 10% (v/v) FCS; read-out: EC50 (effective concentration reducing cell proliferation by 50%), inhibition of SK-Br-3 proliferation
Attribute measured: EC50 (µM)
Numbers only here, please. The scale is µM.

Quickly give me recorded EC50 for O=C(/C=C/c1ccc2c(c1)OCO2)N1CCC(c2nc(-c3ccc4c(c3)OCCO4)cs2)CC1
10.8

====

System: HeLa
Test: Proliferation assay (CellTiter-Glo luminescent cell viability assay), HeLa
Type: cell-based
Conditions: HeLa (printed as human ovarian carcinoma); 48 hours incubation; 10% (v/v) FCS; read-out: EC50 (effective concentration reducing cell proliferation by 50%), inhibition of HeLa proliferation
Recorded measurements of pEC50, one per entry
Convention used: pEC50 is expressed as -log10 of the molar concentration.

# Molecule smiles, Study target, pEC50
records = [
    ("O=C(/C=C/c1ccc2c(c1)OCO2)N1CCC(c2nc(-c3ccc4c(c3)OCCO4)cs2)CC1", "HeLa", 4.83),
]

// moving on: another record for pEC50
Recall and state the measured pEC50 for Cc1nn(C)c(Cl)c1/C=C/C(=O)N1CCC(c2nc(-c3ccc4c(c3)OCCO4)cs2)CC1 .
4.73
